%Inh values, listed per item
# System: PRKG1;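 further: KINOMEscan kinase panel screen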
# experimental parameters: concentration: 1 μM, replicates: in singlicate; n = 1
Entry rule: numbers only, all in %.

Here is how some molecules turned out for %Inh.
| molecule | %Inh (%) |
| --- | --- |
| COc1cccc(NC(=O)Nc2ccc(C)c(-c3ccc(C(=O)Nc4ccncc4)cc3)c2)c1 [GSK1398474] | 0 |
| Cc1ccc(NC(=O)Nc2ccc(Cl)cc2)cc1-c1ccc(C(=O)Nc2ccncc2)cc1 [GSK1398472] | 8 |
| COc1cccc(CNC(=O)NC2CCN(c3ccnc(Nc4ccc(F)cc4)n3)C2)c1 (stereo not drawn) [GSK1379723] | 0 |
| CCCCc1nn2ncccc2c1-c1ccnc(NC2CC2)n1 [GW684374] | 0 |
| Fc1ccc(-c2nc[nH]c2-c2ccncc2)cc1 [SB-217360] | 18 |

Kindly note the recorded %Inh for COC(=O)C(NC(=O)NC1CCN(c2ccnc(Nc3ccc(F)cc3)n2)C1)c1ccccc1 (stereo not drawn) [GSK1379712] , which is 0

Kindly note the recorded %Inh for FC(F)(F)c1ccccc1-c1cc(-c2c[nH]nc2-c2ccccn2)ccn1 [GW679396] , which is 18

Kindly note the recorded %Inh for Cc1ccc(NC(=O)Nc2ccc(Cl)c(C(F)(F)F)c2)cc1-c1ccc(C(=O)Nc2ccncc2)cc1 [GSK1398470] , which is 0

Kindly note the recorded %Inh for Fc1ccc(-c2nc3n(c2-c2ccncc2)CCS3)cc1 [GI98581] , which is 39
